B1: TOR1AIP2 (parent)
chain: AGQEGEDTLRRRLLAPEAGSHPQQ

# Variants of: B1
# Protocol Description: protein stability index of a GFP-peptide fusion (GPS, HEK-293T) (PSI 1-6); higher = more stable;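 also: lentivirally expressed fusions sorted by FACS into six bins by GFP to DsRed ratio, PSI derived from sequencing read proportions per bin multiplied by bin number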
# Setup Conditions: c terminus: a fixed tail appended
Readout Kind: protein stability index

A1F ... 1.83
A15K ... 5.44
Q23Y ... 2.01
T8Y ... 3.17
R10T ... 5.17
L9H ... 4.71
R10C ... 5.64
L14F ... 4.25
P16A ... 5.48
R10Q ... 5.08
R10Y ... 4.53
